# assayedTarget: hOX2R (Homo sapiens, UniProt O43614)
# Sequence (O43614 whole entry): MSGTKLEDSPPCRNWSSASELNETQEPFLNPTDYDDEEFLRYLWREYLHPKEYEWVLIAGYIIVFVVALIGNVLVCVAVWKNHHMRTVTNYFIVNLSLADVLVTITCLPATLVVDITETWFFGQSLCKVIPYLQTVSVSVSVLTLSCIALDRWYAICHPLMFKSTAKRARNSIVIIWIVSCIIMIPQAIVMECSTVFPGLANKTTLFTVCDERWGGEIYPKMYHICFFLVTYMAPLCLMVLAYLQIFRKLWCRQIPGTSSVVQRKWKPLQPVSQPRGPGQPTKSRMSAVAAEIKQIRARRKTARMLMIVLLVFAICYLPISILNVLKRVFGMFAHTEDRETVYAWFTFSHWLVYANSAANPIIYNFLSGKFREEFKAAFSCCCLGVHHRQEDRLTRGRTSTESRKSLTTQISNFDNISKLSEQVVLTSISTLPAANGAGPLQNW
# experimentalProtocol: hOX2R IPone assay (orexin receptor agonism)
# conditionLabel: orexin receptor agonist, IPone readout; read-out: hOX2R_IPone EC50
measuredAttribute: EC50 (nM)

Example compounds with recorded EC50:
CCN1C(=O)NC(CC2CCC2)CCCCCOc2nc(cn3ccnc23)-c2cc(ncc2OC)[C@H]1C (single isomer, unassigned) [Example 61B]
1.3
CCN1C(=O)N[C@@H](CCC(C)(F)F)CCOCCOc2nc(cc3ncnn23)-c2cc(ncc2OC)[C@H]1C
3.36

(a) CCN1C(=O)N[C@@H](C)CCCC(F)(F)COc2nc(cn3ccnc23)-c2cc(ncc2OC)[C@H]1C
(b) CCN1C(=O)NCC(C(F)(F)F)N(C)CCCOc2nc(cn3ccnc23)-c2cccc(c2)C1C (stereo not shown) [Example 26B]
Could you tell me which of a and b has the lower EC50 reading? Give the label of your selection.
b
(b: 12 nM, a: 408 nM)
